Every entry's value here was drawn from ChEMBL document CHEMBL1667772.

# assay_explanation: AUC (24 hrs) in rat at 10 mg/kg, po
# Assay type: ADME, organism-based
# Parameters: time < 24 hr, dose 10 mg/kg, route oral
# reported_conditions: plasma
Classify: TRUE when AUC at 24 h is strictly less than 6000 ng·h/mL; FALSE when AUC at 24 h is not.

INSERT INTO measurements (compound, assigned_category) VALUES
  ('CC(=O)N1CCC(NC(=O)Nc2cccc(C(F)(F)F)c2)CC1', 'FALSE'),
  ('O=C(Nc1ccc(OC(F)(F)F)cc1)NC1CCN(C(=O)c2cccnc2)CC1', 'FALSE'),
  ('CC(=O)N1CCC(NC(=O)NC2CCC(C(C)(C)C)CC2)CC1 (stereo unspecified)', 'TRUE'),
  ('CC(C)S(=O)(=O)N1CCC(NC(=O)Nc2ccc(OC(F)(F)F)cc2)CC1', 'FALSE'),
  ('CS(=O)(=O)N1CCC(NC(=O)NC23CC4CC(CC(C4)C2)C3)CC1', 'TRUE');

###

# target_or_test_system: Bifunctional epoxide hydrolase 2 (Homo sapiens, UniProt P34913)
# Sequence (P34913 whole entry): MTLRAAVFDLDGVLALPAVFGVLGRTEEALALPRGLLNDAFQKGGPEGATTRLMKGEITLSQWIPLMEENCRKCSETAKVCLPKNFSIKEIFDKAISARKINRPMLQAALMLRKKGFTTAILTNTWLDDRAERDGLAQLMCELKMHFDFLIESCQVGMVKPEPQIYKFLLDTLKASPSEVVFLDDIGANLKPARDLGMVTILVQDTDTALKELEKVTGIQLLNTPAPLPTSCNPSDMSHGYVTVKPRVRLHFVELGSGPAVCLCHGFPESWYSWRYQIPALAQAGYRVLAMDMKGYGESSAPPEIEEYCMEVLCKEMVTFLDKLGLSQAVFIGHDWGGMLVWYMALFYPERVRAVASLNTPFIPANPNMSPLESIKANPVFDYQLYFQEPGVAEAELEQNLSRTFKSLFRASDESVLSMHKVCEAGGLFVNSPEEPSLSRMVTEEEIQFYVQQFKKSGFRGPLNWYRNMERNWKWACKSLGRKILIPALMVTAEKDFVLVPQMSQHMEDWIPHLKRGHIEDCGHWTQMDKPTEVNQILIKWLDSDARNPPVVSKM
# Assay type: cell-based, HUVEC
pIC50: −log10 of the molar value.
measurement_type: pIC50

INSERT INTO results (compound, target_or_test_system, reported_result) VALUES
  ('CS(=O)(=O)N1CCC(NC(=O)NC23CC4CC(CC(C4)C2)C3)CC1', 'Bifunctional epoxide hydrolase 2 (Homo sapiens, UniProt P34913)', 8.41),
  ('CC(=O)N1CCC(NC(=O)NC2CCC(C(C)(C)C)CC2)CC1 (stereo not drawn)', 'Bifunctional epoxide hydrolase 2 (Homo sapiens, UniProt P34913)', 6.57),
  ('CC(=O)N1CCC(NC(=O)NC2CCCCCC2)CC1', 'Bifunctional epoxide hydrolase 2 (Homo sapiens, UniProt P34913)', 7.57);
